# systemTested: HGFR (Homo sapiens, UniProt P08581)
# Construct: purchased Upstate 14-526
# Sequence (P08581 974-1390 limits assumed): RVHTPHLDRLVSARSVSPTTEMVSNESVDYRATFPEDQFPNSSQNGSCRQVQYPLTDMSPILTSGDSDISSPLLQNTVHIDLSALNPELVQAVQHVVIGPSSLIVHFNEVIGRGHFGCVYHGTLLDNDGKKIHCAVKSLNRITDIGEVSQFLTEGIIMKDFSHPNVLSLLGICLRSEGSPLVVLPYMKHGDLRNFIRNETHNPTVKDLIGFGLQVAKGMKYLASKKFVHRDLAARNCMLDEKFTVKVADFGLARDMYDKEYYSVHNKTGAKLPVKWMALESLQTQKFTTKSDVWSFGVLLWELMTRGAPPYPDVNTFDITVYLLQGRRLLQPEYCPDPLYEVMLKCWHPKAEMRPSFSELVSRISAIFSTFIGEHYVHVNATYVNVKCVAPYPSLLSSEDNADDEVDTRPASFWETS
# procedureSummary: HGFR continuous-coupled spectrophotometric assay (tyrosine kinase activity on Met-2 substrate peptide)
# Format: biochemical
# conditionDescription: Ki, HGFR 50 nM, Met-2 peptide 0.5 mM, ATP 300 μM, 37° C., absorbance 340 nm
Measured Ki by item
Quick reminder: number only, in nM, skip the unit.

The following molecules have reported results that may help.
[
  {
    "molecule": "OCCN(CCO)c1cnc2nnn(Cc3ccc4ncccc4c3)c2n1",
    "systemTested": "HGFR (Homo sapiens, UniProt P08581)",
    "resultUnits": "nM",
    "resultValue": 19
  },
  {
    "molecule": "c1cnc2ccc(Cn3nnc4ncc(N5CCc6nc[nH]c6C5)nc43)cc2c1",
    "systemTested": "HGFR (Homo sapiens, UniProt P08581)",
    "resultUnits": "nM",
    "resultValue": 37
  }
]

Pending molecule:
Input: Fill blank: measured Ki of the molecule Cc1nccn1CC1(O)CCN(c2cnc3nnn(Cc4ccc5ncccc5c4)c3n2)C1 (stereo not drawn) is ____.
Output: 49
